subject_of_test: SARM1 (ARM-SAM-TIR) (Homo sapiens (Human))
assay_name: ARM-SAM-TIR SARM1 IC50 assay (NADase activity, NAD+ cleavage, RapidFire MS)
run_parameters: ARM-SAM-TIR lysate 5 μg/mL, 2 h pre-incubation, 5 μM NAD+, 2 hr room temperature
pIC50: −log10 of the molar value.
Entries annotated with measured pIC50
readout: pIC50

>>> print(df.to_string())
                           substance_smiles  readout        result
0  O=C(CCc1ccc(Cl)nc1)Nc1[nH]nc(-c2ccnnc2)c1C1CCC1    pIC50        > 5.30
1  CN(C(=O)CCc1ccc(Cl)nc1)c1cc(-c2ccncc2)n[nH]1    pIC50        > 5.30
2  [2H]C([2H])(C(=O)Nc1[nH]nc(-c2ccncc2)c1C)C([2H])([2H])c1ccc(Cl)cc1    pIC50        > 5.30
3  C[C@@H](CC(=O)Nc1nnc(-c2ccncc2)[nH]1)c1ccccc1    pIC50  4.52 to 4.82
4  O=C(Nc1nnc(-c2ccncc2)[nH]1)N[C@@H]1CCOc2cc(Cl)ncc21    pIC50  4.82 to 5.30
5  O=C(CCc1ccc(C(F)(F)F)s1)Nc1cc(-c2ccncc2)n[nH]1    pIC50        > 5.30
6  Cc1c(-c2ccncc2)n[nH]c1NC(=O)CCc1ccc(C#N)c(F)c1    pIC50        > 5.30

###

subject_of_test: SARM1 (ARM-SAM-TIR) (Homo sapiens (Human), UniProt Q6SZW1)
Sequence (Q6SZW1 other isoform, or with tags, fused parts or gaps): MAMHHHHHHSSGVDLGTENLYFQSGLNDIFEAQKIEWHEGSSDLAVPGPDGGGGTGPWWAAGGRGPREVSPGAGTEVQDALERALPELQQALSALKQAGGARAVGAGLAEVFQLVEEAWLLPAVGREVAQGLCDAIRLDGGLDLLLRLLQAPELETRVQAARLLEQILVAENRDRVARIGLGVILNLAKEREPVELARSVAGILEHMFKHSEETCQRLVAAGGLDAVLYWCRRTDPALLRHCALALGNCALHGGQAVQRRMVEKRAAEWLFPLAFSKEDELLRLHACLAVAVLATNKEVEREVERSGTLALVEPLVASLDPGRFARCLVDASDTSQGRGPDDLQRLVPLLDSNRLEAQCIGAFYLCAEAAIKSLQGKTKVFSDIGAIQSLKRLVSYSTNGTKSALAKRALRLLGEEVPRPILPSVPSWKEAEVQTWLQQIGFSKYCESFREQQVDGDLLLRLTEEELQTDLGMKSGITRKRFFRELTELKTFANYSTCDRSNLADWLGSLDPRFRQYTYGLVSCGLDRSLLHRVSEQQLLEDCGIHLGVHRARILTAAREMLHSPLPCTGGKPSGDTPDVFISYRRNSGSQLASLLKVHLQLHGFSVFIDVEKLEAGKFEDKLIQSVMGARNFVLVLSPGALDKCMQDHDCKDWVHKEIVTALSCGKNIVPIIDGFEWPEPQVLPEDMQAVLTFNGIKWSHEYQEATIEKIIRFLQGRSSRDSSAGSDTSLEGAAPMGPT
assay_name: ARM-SAM-TIR SARM1 IC50 assay (NADase activity, NAD+ cleavage, RapidFire MS)
run_parameters: ARM-SAM-TIR lysate 5 μg/mL, 2 h pre-incubation, 5 μM NAD+, 2 hr room temperature
pIC50: −log10 of the molar value.
Collected pIC50 values appear next to each entry.
readout: pIC50

                                   compound        result
0  O=C(NCc1ccc(Cl)cc1)Nc1nnc(-c2ccncc2)[nH]1 [Example 92]        > 5.30
1  COc1ccccc1CCC(=O)Nc1nnc(-c2ccncc2)[nH]1 [Example 107]        > 5.30
2  Cc1c(-c2ccncc2)n[nH]c1NC(=O)CCc1ccc(Cl)c(C#N)c1 [Example 270]        > 5.30
3  O=C(Nc1nnc(-c2ccncc2)[nH]1)NC1CCOc2cc(Cl)ccc21 (centres unmarked) [Example 183]  4.82 to 5.30
4  N#Cc1c(-c2ccncc2)n[nH]c1NC(=O)CCc1ccc(Cl)cc1 [Example 186]        > 5.30

###

subject_of_test: SARM1 (ARM-SAM-TIR) (Homo sapiens (Human))
assay_name: ARM-SAM-TIR SARM1 IC50 assay (NADase activity, NAD+ cleavage, RapidFire MS)
run_parameters: ARM-SAM-TIR lysate 5 μg/mL, 2 h pre-incubation, 5 μM NAD+, 2 hr room temperature
Listed molecules paired with reported IC50
readout: IC50

>>> print(df.to_string())
                            substance_smiles  readout       result
 0  Cc1c(-c2ccncc2)n[nH]c1NC(=O)CCc1cnc(Cl)c(F)c1     IC50       < 5 µM
 1  O=C(CCc1ccc(Cl)cc1)Nc1[nH]nc(-c2ccnnc2)c1C1CC1     IC50       < 5 µM
 2                    Nc1nnc(-c2ccncc2)[nH]1     IC50      > 30 µM
 3    O=C(CCc1ccc(Cl)cc1)Nc1nc(-c2ccncc2)ns1     IC50       < 5 µM
 4  Cc1c(-c2ccncc2)n[nH]c1NC(=O)CCc1cc(F)ccc1F     IC50       < 5 µM
 5  CN(C(=O)CCc1ccccc1)c1nnc(-c2ccncc2)[nH]1     IC50   5 to 15 µM
 6  Cn1c(CCC(=O)Nc2nnc(-c3ccncc3)[nH]2)nc2ccccc21     IC50  15 to 30 µM
 7  Nc1cnccc1-c1cc(NC(=O)CCc2ccc(Cl)nc2)[nH]n1     IC50       < 5 µM
 8  Cc1c(-c2ccncc2)n[nH]c1N(C)C(=O)CCc1ccc(Cl)nc1     IC50   5 to 15 µM
 9  Cc1ccc(CCC(=O)Nc2nnc(-c3ccncc3)[nH]2)c(C)c1     IC50       < 5 µM
10  CCc1ccc(CCC(=O)Nc2nc(-c3ccncc3)n[nH]2)cc1     IC50       < 5 µM
11  CCOC(=O)Cc1c(-c2ccncc2)n[nH]c1NC(=O)CCc1ccc(Cl)cc1     IC50       < 5 µM
12  O=C(CCc1ccc(Cl)nc1)Nc1[nH]nc(-c2ccncc2)c1Cl     IC50       < 5 µM
13       Cn1nc(NC(=O)CCc2ccccc2)nc1-c1ccncc1     IC50      > 30 µM
14       Cn1nc(-c2ccncc2)nc1NC(=O)CCc1ccccc1     IC50      > 30 µM
15  O=C(CCc1ccc(Cl)nc1)Nc1cc(-c2cccnc2)n[nH]1     IC50   5 to 15 µM
16  Cc1c(-c2ccnnc2)n[nH]c1NC(=O)CCc1ccc(Cl)nc1     IC50       < 5 µM
17  O=C(CCc1ccc(F)c(F)c1)Nc1cc(-c2ccncc2)n[nH]1     IC50       < 5 µM
18     O=C(CCc1ccncc1)Nc1nnc(-c2ccncc2)[nH]1     IC50  15 to 30 µM

###

# key: entry, value: pIC50
subject_of_test: SARM1 (ARM-SAM-TIR) (Homo sapiens (Human))
assay_name: ARM-SAM-TIR SARM1 IC50 assay (NADase activity, NAD+ cleavage, RapidFire MS)
Format: biochemical
run_parameters: ARM-SAM-TIR lysate 5 μg/mL, 2 h pre-incubation, 5 μM NAD+, 2 hr room temperature
pIC50: −log10 of the molar value.
readout: pIC50

In [3]: df
Out[3]:
                            substance_smiles                           subject_of_test        result
 0  O=C(CCc1ccc(Cl)nc1)Nc1[nH]nc(-c2ccnnc2)c1C1CC1  SARM1 (ARM-SAM-TIR) (Homo sapiens (Human))        > 5.30
 1  NS(=O)(=O)c1ccc(CCC(=O)Nc2nnc(-c3ccncc3)[nH]2)cc1  SARM1 (ARM-SAM-TIR) (Homo sapiens (Human))  4.52 to 4.82
 2  O=C(CCc1ccc(Cl)nc1)Nc1nc(-c2ccncc2)c[nH]1  SARM1 (ARM-SAM-TIR) (Homo sapiens (Human))        > 5.30
 3  Cc1c(-c2ccncc2)n[nH]c1NC(=O)CCc1ccc(Cl)s1  SARM1 (ARM-SAM-TIR) (Homo sapiens (Human))        > 5.30
 4  O=C(CCc1ccc(Cl)s1)Nc1nc(-c2ccncc2)c[nH]1  SARM1 (ARM-SAM-TIR) (Homo sapiens (Human))        > 5.30
 5  O=C(CCc1ccc(Cl)cn1)Nc1nnc(-c2ccncc2)[nH]1  SARM1 (ARM-SAM-TIR) (Homo sapiens (Human))        > 5.30
 6  N#Cc1c(-c2ccncc2)c[nH]c1NC(=O)CCc1ccc(Cl)nc1  SARM1 (ARM-SAM-TIR) (Homo sapiens (Human))        > 5.30
 7  O=C(CCc1ccc(Cl)s1)Nc1nnc(-c2ccnnc2)[nH]1  SARM1 (ARM-SAM-TIR) (Homo sapiens (Human))        > 5.30
 8  CC(C)(C)c1ccc(CCC(=O)Nc2nnc(-c3ccncc3)[nH]2)cc1  SARM1 (ARM-SAM-TIR) (Homo sapiens (Human))  4.82 to 5.30
 9  CN[C@@H](Cc1ccc(Cl)cc1)C(=O)Nc1cc(-c2ccncc2)n[nH]1  SARM1 (ARM-SAM-TIR) (Homo sapiens (Human))        > 5.30
10  O=C(CCc1cnc(C(F)(F)F)nc1)Nc1nnc(-c2ccncc2)[nH]1  SARM1 (ARM-SAM-TIR) (Homo sapiens (Human))        > 5.30
11  Cc1c(-c2ccncc2)n[nH]c1NC(=O)[C@H]1C[C@H](c2ccc(Cl)cc2)C1  SARM1 (ARM-SAM-TIR) (Homo sapiens (Human))        > 5.30
12  O=C(CCc1ccc(Cl)nc1)Nc1[nH]nc(-c2ccncc2)c1F  SARM1 (ARM-SAM-TIR) (Homo sapiens (Human))        > 5.30
13  O=C(C[C@@H]1CCOc2cc(Cl)ccc21)Nc1cc(-c2ccncc2)n[nH]1  SARM1 (ARM-SAM-TIR) (Homo sapiens (Human))        > 5.30
14  Cc1c(-c2ccncc2)n[nH]c1NC(=O)CCc1ccc(C(F)(F)F)cc1  SARM1 (ARM-SAM-TIR) (Homo sapiens (Human))        > 5.30
15  O=C(CN1CCOc2cc(Cl)ccc21)Nc1nnc(-c2ccncc2)[nH]1  SARM1 (ARM-SAM-TIR) (Homo sapiens (Human))        > 5.30
16  O=C(C[C@H]1CCc2ccccc21)Nc1nnc(-c2ccncc2)[nH]1  SARM1 (ARM-SAM-TIR) (Homo sapiens (Human))  4.82 to 5.30
17  CC(C)(CC(=O)Nc1nnc(-c2ccncc2)[nH]1)c1ccccc1  SARM1 (ARM-SAM-TIR) (Homo sapiens (Human))  4.52 to 4.82
